# System: K562
# assay notes: In vitro inhibition of cell growth against human myeloid leukemia K562(S) cells
# Type: functional, cell-based
readout name: IC50 (mM)
Form entry: value (mM) — number only.

For record CC1(C)OCC(C2OC3OC(C)(C)OC3C2O)O1 (stereo unspecified) the listed IC50 is 2.8

###

I'd be grateful if you could share measured Erythroid induction for these entries.
# System: K562
# assay notes: Compound was evaluated for erythroid induction of benzidine-positive K562 cells at concentration 4 mM after 9 day induction period
# Format: functional, Homo sapiens

The molecule listed as CCCCC(=O)OC1C(C(O)CO)OC2OC(C)(C)OC21 (centres undefined) has a reported Erythroid induction of 25%

Noted for CCC(=O)OC1C(C(O)CO)OC2OC(C)(C)OC21 (centres undefined) : its Erythroid induction reads 25%

Entry CC1(C)OC2OC(C(O)CO)C(OC(=O)C3CCCC3)C2O1 (centres undefined) — recorded Erythroid induction = 16.8%

The molecule listed as CCC(=O)O [PROPIONIC ACID] shows Erythroid induction equal to 10%
